Assay Text: Cytotoxicity against human HuH7 cells by MTT assay
Format: cell-based, Huh-7
Run Conditions: read-out: TD50 (the source's name)
Measurement Type: CC50 (µM)
# output: bare number, implied unit µM

-- ask Request the reported CC50 associated with Cc1ccc(Sc2ccccc2)c(Nc2ncnc3nc(C4CC4)ccc23)c1
-- reply 9.9

-- ask What do you get for Cc1ccc(Sc2ccccc2)c(Nc2cccc3nc(C)ccc23)c1 ?
-- reply 15.9

-- ask What do you get for Cc1ccc(Sc2ccc(F)cc2)c(Nc2ncnc3nc(C)ccc23)c1 ?
-- reply 6.1

-- ask What do you get for CCCc1ccc2c(Nc3cc(C)ccc3Sc3ccc(O)cc3)ncnc2n1 ?
-- reply 31.1
